These entries and their values trace back to the supplement of paper PMC10567573.

Reported protein stability index is given for each of the following variants.
B1: JUNB (parent)
chain: FVKALDDLHKMNHVTPPNVSLGAT

Variants of: B1
method.notes: protein stability index of a GFP-peptide fusion (GPS, HEK-293T) (PSI 1-6); higher = more stable;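 further: lentivirally expressed fusions sorted by FACS into six bins by GFP to DsRed ratio, PSI derived from sequencing read proportions per bin multiplied by bin number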
test.context: c terminus: a fixed tail appended
observable: protein stability index

>>> readout_value("D6H")
1.57
>>> readout_value("H13Q")
2.08
>>> readout_value("T24C")
1.33
>>> readout_value("M11E")
3.21
>>> readout_value("T24R")
1.33
>>> readout_value("F1K")
3.92
>>> readout_value("K10E")
2.98
>>> readout_value("D7V")
2.27
>>> readout_value("V19M")
1.82
>>> readout_value("V2W")
2.47
>>> readout_value("H13V")
1.75
>>> readout_value("K3E")
2.44
>>> readout_value("T24F")
2.66
>>> readout_value("D6A")
2
>>> readout_value("P17V")
1.71
>>> readout_value("M11I")
2.26
>>> readout_value("L5Q")
2.08
>>> readout_value("D7N")
1.96
>>> readout_value("M11F")
2.6
>>> readout_value("T24H")
1.83
>>> readout_value("V2L")
2.79
>>> readout_value("A4H")
2.03
>>> readout_value("N18S")
2.61
>>> readout_value("P17R")
1.44
>>> readout_value("G22I")
2.41
>>> readout_value("D6M")
2.54
>>> readout_value("V19K")
1.39
>>> readout_value("H9S")
2.57
>>> readout_value("H9P")
1.69
>>> readout_value("A4C")
1.63
